# experimental target: KDM3B (Homo sapiens, UniProt Q7LBC6)
# Sequence (Q7LBC6 whole entry, species assumed): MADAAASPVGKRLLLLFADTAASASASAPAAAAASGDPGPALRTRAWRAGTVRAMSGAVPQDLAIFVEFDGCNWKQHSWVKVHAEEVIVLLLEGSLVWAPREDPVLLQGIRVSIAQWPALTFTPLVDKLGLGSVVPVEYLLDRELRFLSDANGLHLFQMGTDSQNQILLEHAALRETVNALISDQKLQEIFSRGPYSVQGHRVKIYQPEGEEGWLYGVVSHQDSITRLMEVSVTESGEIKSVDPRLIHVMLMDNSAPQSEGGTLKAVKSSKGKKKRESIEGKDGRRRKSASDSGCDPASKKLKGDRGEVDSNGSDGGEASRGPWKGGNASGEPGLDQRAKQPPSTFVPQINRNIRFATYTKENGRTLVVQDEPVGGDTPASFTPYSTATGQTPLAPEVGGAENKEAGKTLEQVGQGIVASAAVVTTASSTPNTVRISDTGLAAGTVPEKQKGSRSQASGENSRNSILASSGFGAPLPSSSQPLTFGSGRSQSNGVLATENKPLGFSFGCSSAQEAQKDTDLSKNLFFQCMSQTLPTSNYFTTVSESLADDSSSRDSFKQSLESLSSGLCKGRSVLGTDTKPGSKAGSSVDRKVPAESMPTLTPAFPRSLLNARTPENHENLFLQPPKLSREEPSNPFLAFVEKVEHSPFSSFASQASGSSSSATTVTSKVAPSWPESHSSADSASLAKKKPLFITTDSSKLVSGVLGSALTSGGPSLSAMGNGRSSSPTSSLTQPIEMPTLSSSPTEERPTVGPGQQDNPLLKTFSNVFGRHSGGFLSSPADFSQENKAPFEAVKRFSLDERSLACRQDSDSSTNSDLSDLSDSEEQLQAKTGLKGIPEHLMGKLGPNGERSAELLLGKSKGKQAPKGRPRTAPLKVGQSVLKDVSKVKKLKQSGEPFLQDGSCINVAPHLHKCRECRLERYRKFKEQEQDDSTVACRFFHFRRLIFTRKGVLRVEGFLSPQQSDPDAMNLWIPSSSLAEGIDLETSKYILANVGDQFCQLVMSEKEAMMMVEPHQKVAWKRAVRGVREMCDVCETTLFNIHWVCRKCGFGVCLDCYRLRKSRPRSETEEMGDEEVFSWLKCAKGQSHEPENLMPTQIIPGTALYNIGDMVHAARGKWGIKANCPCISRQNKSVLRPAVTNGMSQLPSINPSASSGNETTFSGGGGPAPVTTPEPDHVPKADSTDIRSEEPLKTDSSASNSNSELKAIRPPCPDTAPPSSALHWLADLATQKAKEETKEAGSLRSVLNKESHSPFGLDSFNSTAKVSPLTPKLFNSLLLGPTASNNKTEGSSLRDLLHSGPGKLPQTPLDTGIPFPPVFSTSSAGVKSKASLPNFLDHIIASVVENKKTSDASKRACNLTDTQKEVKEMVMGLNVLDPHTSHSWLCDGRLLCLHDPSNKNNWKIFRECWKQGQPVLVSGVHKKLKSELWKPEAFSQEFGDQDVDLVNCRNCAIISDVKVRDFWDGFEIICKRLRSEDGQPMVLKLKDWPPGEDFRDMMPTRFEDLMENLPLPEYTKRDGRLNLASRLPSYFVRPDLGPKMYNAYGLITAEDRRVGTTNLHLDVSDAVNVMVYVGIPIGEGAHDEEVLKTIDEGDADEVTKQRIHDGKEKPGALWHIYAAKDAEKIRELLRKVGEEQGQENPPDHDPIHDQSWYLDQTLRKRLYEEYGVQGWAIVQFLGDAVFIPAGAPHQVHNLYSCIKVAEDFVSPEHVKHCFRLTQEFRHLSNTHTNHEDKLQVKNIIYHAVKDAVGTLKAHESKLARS
# experiment: KDM3B AlphaScreen assay (Table 1)
# Assay type: biochemical
# cond: ASSAY 1
metric: pIC50
Give bare numbers, as −log10 of the molar value.

The cases that follow already have their pIC50 on record.
Query: pIC50; subject: CN(C)c1ccc(CCNC(=O)CCC(=O)N2CCC(Oc3cc(-c4ccc(N(C)C)cc4)ccn3)CC2)cc1
4.28

Entry to check: CN(C)c1ccc(CCNC(=O)CCC(=O)N2CCC(Oc3ccc(C(F)(F)F)cn3)CC2)cc1
4.55

Attention now shifts to the item below.
Query: pIC50; subject: CN(C)c1ccc(CCNC(=O)CCC(=O)N2CCC(Oc3ccc(-c4ccc(N(C)C)cc4)cn3)CC2)cc1
5.06

---

Kindly supply the reported pIC50 values for the records listed here.
# experimental target: KDM3B (Homo sapiens, UniProt Q7LBC6)
# experiment: KDM3B AlphaScreen assay (Table 1)
# Format: biochemical
# cond: ASSAY 6
Answers are plain numbers, as −log10 of the molar value.

The cases that follow already have their pIC50 on record.
Query: pIC50; subject: CN(C)c1ccc(CCC(=O)Nc2ccc(F)cc2C(=O)N2CCC(Oc3cc(N4CCOCC4)ccn3)CC2)cc1
4.13

Entry to check: CN(C)c1ccc(CCC(=O)Nc2ccc(F)cc2C(=O)N2CCC(Oc3cc(N4CCCCC4)ccn3)CC2)cc1
4.95

Attention now shifts to the item below.
Query: pIC50; subject: CCOC(=O)c1ccc(N)c(C(=O)N2CCC(Oc3cc(-c4ccc(N(C)C)cc4)ccn3)CC2)c1
5.03

---

# experimental target: KDM3A (Homo sapiens)
# Sequence (Q9Y4C1 1-1321): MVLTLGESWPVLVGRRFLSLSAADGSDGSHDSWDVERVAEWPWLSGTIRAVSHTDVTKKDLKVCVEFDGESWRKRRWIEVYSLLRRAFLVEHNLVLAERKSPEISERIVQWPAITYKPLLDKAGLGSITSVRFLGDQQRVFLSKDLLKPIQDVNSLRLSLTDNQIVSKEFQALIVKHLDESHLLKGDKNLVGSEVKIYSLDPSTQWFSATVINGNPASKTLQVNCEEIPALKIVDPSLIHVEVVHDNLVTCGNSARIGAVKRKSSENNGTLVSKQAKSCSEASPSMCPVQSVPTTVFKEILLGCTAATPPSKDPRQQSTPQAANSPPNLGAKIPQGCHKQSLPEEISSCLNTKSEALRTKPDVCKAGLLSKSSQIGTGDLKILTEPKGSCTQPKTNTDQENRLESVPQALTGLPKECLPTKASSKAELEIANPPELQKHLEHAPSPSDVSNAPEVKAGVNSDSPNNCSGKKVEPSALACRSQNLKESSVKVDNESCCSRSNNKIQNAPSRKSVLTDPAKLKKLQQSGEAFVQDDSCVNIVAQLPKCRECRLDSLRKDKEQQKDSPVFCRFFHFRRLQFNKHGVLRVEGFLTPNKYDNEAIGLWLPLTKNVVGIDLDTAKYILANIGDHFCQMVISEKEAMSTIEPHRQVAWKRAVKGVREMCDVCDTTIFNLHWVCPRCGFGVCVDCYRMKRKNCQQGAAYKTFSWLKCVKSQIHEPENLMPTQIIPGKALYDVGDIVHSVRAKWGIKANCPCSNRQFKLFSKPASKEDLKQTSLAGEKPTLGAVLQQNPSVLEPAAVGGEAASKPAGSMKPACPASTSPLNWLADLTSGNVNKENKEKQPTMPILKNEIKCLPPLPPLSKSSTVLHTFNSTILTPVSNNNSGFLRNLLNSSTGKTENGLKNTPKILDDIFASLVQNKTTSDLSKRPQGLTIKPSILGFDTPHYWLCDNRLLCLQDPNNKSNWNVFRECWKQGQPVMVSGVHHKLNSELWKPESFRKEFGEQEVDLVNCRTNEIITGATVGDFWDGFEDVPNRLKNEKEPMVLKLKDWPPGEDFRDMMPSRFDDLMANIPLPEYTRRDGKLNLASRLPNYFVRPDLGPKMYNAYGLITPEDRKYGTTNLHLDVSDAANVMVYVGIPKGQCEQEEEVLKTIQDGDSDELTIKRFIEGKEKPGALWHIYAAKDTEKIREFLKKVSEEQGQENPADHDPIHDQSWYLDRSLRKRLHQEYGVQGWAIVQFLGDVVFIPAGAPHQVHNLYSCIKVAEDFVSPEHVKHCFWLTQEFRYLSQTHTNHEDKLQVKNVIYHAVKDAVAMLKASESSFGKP
Kindly supply the reported IC50 values for the records listed here.
Answers are plain numbers, in µM.

The cases that follow already have their IC50 on record.
Query: IC50; subject: CN(C)c1ccc(-c2ccc(OC3CCN(C(=O)c4ccccc4OC(=O)c4ccccc4O)CC3)nc2)cc1
16

Entry to check: CN(C)c1ccc(CCC(=O)Nc2cc(F)ccc2C(=O)N2CCC(Oc3ccc(-c4ccc(N(C)C)cc4)cn3)CC2)cc1
14

Entry to check: COc1ccc(S(=O)(=O)Nc2ccc(F)cc2C(=O)N2CCC(Oc3ccc(-c4ccc(N(C)C)cc4)cn3)CC2)cc1OC
35

Entry to check: CN(C)c1ccc(CNC(=O)/C=C\C(=O)N2CCC(Oc3ccc(-c4ccc(N(C)C)cc4)cn3)CC2)cc1
13

Entry to check: CN(C)c1ccc(CCC(=O)Nc2ccc(C(F)(F)F)cc2C(=O)N2CCC(Oc3ccc(-c4ccc(N(C)C)cc4)cn3)CC2)cc1
20

Take each entry in turn and give its IC50.
1. CN(C)c1ccc(CCC(=O)Nc2ccc(OC(F)(F)F)cc2C(=O)N2CCC(Oc3ccc(-c4ccc(N(C)C)cc4)cn3)CC2)cc1
2. CN(C)c1ccc(CNc2ccc(F)cc2C(=O)N2CCN(Cc3ccc(N(C)C)cc3)CC2)cc1

1. 23.6
2. 7.65

---

Kindly supply the reported pIC50 values for the records listed here.
# experimental target: KDM3B (Homo sapiens, UniProt Q7LBC6)
# experiment: KDM3B AlphaScreen assay (Table 1)
# Format: biochemical
# cond: ASSAY 7
Numbers only, as −log10 of the molar value.

The cases that follow already have their pIC50 on record.
Query: pIC50; subject: CN(C)c1ccc(-c2ccc(OC3CCN(C(=O)c4ccccc4[N+](=O)[O-])CC3)nc2)cc1
4.96

Entry to check: CCOC(=O)c1ccc(N)c(C(=O)N2CCC(Oc3cc(-c4ccc(N(C)C)cc4)ccn3)CC2)c1
5.08

Entry to check: CN(C)c1ccc(CCNC(=O)CCC(=O)N2CCC(Oc3ccc(-c4ccc(N(C)C)cc4)cn3)CC2)cc1
5.01

Others:
Query: pIC50; subject: CN(C)c1ccc(CCNC(=O)/C=C\C(=O)N2CCC(Oc3ccc(-c4ccc(N(C)C)cc4)cn3)CC2)cc1
5.25

---

# experimental target: UniProt Q7LBC6
# experiment: KDM3B AlphaScreen assay (Table 1)
# Assay type: biochemical
# cond: ASSAY 8
metric: IC50 (µM)
Give bare numbers, in µM.

The cases that follow already have their IC50 on record.
Query: IC50; subject: CN(C)c1ccc(-c2ccc(OC3CCN(C(=O)c4ccccc4[N+](=O)[O-])CC3)nc2)cc1 [KDM3-39]
19.2

Entry to check: CC(=O)Nc1ccc(C(=O)N2CCC(Oc3ccc(-c4ccc(N(C)C)cc4)cn3)CC2)c(N)c1 [KDM3-40]
22.4

Entry to check: CN(C)c1ccc(-c2ccnc(OC3CCN(C(=O)c4cc(C(=O)O)ccc4N)CC3)c2)cc1 [KDM3-43]
61

Entry to check: CCOC(=O)c1ccc(N)c(C(=O)N2CCC(Oc3cc(-c4ccc(N(C)C)cc4)ccn3)CC2)c1 [KDM3-31]
10.8

Entry to check: CN(C)c1ccc(-c2ccc(OC3CCN(C(=O)c4cc(C(=O)O)ccc4N)CC3)nc2)cc1 [KDM3-41]
49.4

Others:
Query: IC50; subject: CN(C)c1ccc(-c2ccc(OC3CN(C(=O)c4ccccc4[N+](=O)[O-])C3)nc2)cc1 [KDM3-42]
11.8

---

# experimental target: KDM3B (Homo sapiens)
# experiment: KDM3B AlphaScreen assay (Table 1)
# Type: biochemical
# cond: ASSAY 5
Kindly supply the reported pIC50 values for the records listed here.
Give bare numbers, as −log10 of the molar value.

Query: pIC50; subject: CN(C)c1ccc(CCC(=O)Nc2ccc(F)cc2C(=O)N2CCC(Oc3ccc(-c4ccc(N(C)C)cc4)cn3)CC2)cc1
5.32

Attention now shifts to the item below.
Query: pIC50; subject: CN(C)c1ccc(CCC(=O)Nc2ccc(F)cc2C(=O)N2CCC(Oc3ccc(-c4ccc(CN5CCOCC5)cc4)cn3)CC2)cc1
4.96
